# credit: the supplement of paper PMC9694430

Test system: LOC_OS01G60700-cb002;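 further: purified Escherichia coli-expressed rice kinase domain construct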
assayNotes: thermal shift delta Tm vs DMSO control; higher = stronger stabilization (binding)
statedConditions: 12.5 µM; protein concentration 2 µM
1 means recorded thermal shift delta Tm is 1 °C or above; -1 means it is below 1 °C.

> print(dat)
                                   compound  classification
1  O=c1cc(-c2ccccc2)oc2c(O)c(O)ccc12 [7,8-Dihydroxyflavone]               1
2  C=CC(=O)N1CCC(Oc2cc3c(Nc4ccc(Cl)c(Cl)c4F)ncnc3cc2OC)CC1 [Poziotinib (HM781-36B)]              -1
3  CN(C)C/C=C/C(=O)Nc1ccc(C(=O)Nc2cccc(Nc3ncc(Cl)c(-c4c[nH]c5ccccc45)n3)c2)cc1               1
4  COc1cc2/c(=N/c3ccc(Br)cc3F)nc[nH]c2cc1OCC1CCN(C)CC1 [Vandetanib (ZD6474)]               1
5  COc1nccnc1NS(=O)(=O)c1ccc(NC(=O)/C=C/c2ccc([N+](=O)[O-])s2)cc1 [Necrosulfonamide]               1
6  COc1ccc(-c2ccc3c(N4CCOC[C@@H]4C)nc(N4CCOC[C@@H]4C)nc3n2)cc1CO              -1
7  Cn1c2ccccc2c2c3c(c4c5ccccc5n(CCC#N)c4c21)CNC3=O              -1
